experiment: qHTS for induction of synthetic lethality in tumor cells producing 2HG: qHTS for the HT-1080-NT fibrosarcoma cell line; conditions: HT-1080-NT fibrosarcoma viability, CellTiter-Glo ATP luminescence, 48 h; series mostly up to 46.1 µM; note: potency is the fitted concentration of half-maximal effect
In all, about 360,000 compounds went through this assay and about 6,000 (1.7%) were called active. About 8% were inconclusive and are not listed. The full list was thinned out, with actives kept by preference.
TEST_READOUT: Potency

A selection of reference data follows.
compound=COc1ccc(CNS(=O)(=O)c2ccc(-c3cnc(C4CC4)o3)cc2)cc1 test_readout=Potency observed=inactive
compound=CCOC(=O)C1=CC[C@@H](c2ccccc2)N(S(=O)(=O)c2ccc(C)cc2)[C@H]1c1ccc(CC)cc1 test_readout=Potency observed=inactive
compound=CC(C)c1cc(C(=O)NC2CCCCCC2)c2ccccc2n1 test_readout=Potency observed=inactive
compound=COc1ccc(C(=O)OCC(=O)Nc2cccc(C(C)=O)c2)cc1OC test_readout=Potency observed=inactive
compound=Cc1nc(/N=C(\N)NC(=O)NC2CCCCC2)nc2ccccc12 test_readout=Potency observed="23.1 µM (active)"
compound=CCN(CC)C(=O)CCC(=O)Nc1ccc(C(=O)OC)cc1 test_readout=Potency observed=inactive

QUERY: Dear colleague, I am looking for the recorded Potency of the following compound: COc1cc(C(=O)N(C)Cc2cccc(OC)c2OC)ccc1OCC(=O)Nc1cccc(C(F)(F)F)c1
RESULT: 8.2 µM (active)

QUERY: Dear colleague, I am looking for the recorded Potency of the following compound: CC1(C)OC(=O)C2=C(C[C@@H](C3CC3)O[C@H]2c2ccc(Cl)cc2)O1
RESULT: inactive

---

test: qHTS for induction of synthetic lethality in tumor cells producing 2HG: qHTS for the HT-1080-NT fibrosarcoma cell line; conditions: HT-1080-NT fibrosarcoma viability, CellTiter-Glo ATP luminescence, 48 h; series mostly up to 46.1 µM
In all, about 360,000 compounds went through this assay and about 6,000 (1.7%) were called active. Not shown: some 8% with an inconclusive outcome. Calls follow the shape of the dose curve; as a rule, active = well fitted cell-killing curve with a large enough effect; inconclusive = small, poorly fitted or top-dose-only effect, or effect the other way; inactive = flat fitted curve, though single readings scatter. Many of the other results were omitted from the sample, so actives are more common in it than they were.
Mark one answer only. Choices: active, inactive

These recorded examples may help you get a feel for the data.
molecule=COc1cc2nc(Cl)nc(NC3CC3)c2cc1OC answer_label=inactive
molecule=Cc1cc(C)n2c(NCc3ccccc3)c(CC(C)C)nc2n1 answer_label=inactive

QUERY: Could you kindly confirm the outcome this assay logged for CN1OC[C@@H]2CN(C(=O)c3cccc4ccccc34)[C@H](c3ccc(N4CCCCC4)cc3)C[C@@H]21 ?
RESULT: inactive

QUERY: Could you kindly confirm the outcome this assay logged for CCCNC(=O)C1(C)CCN(C(=O)c2ccccc2OC(F)(F)F)C1 (stereo unspecified) ?
RESULT: inactive

QUERY: Could you kindly confirm the outcome this assay logged for CC(=O)Oc1ccc(Cn2c(C)c(C(=O)NCc3ccc(C#N)cc3)sc2=O)cc1 ?
RESULT: inactive

QUERY: Could you kindly confirm the outcome this assay logged for CC(C)Cc1ccc(-c2cc3nc(NCc4cccc(Cl)c4)ccn3n2)cc1 ?
RESULT: active

QUERY: Could you kindly confirm the outcome this assay logged for CCc1nc2ccc(C(=O)Nc3cc(-c4ccccc4)ccc3OC)cn2c1N(CC)CC(=O)N(C)C ?
RESULT: inactive

QUERY: Could you kindly confirm the outcome this assay logged for COc1ccccc1-c1cc2nc(NCc3cccc(Cl)c3)ccn2n1 ?
RESULT: inactive

QUERY: Could you kindly confirm the outcome this assay logged for COc1ccc(/C=C2/CCCc3ccccc3C2=O)cc1 ?
RESULT: active

QUERY: Could you kindly confirm the outcome this assay logged for COc1ccc(/C=C2\CCc3ccccc3C2=O)c(OC)c1OC ?
RESULT: inactive

QUERY: Could you kindly confirm the outcome this assay logged for Cc1ccccc1OS(=O)(=O)c1cccc([N+](=O)[O-])c1 ?
RESULT: inactive

---

assay: qHTS for induction of synthetic lethality in tumor cells producing 2HG: qHTS for the HT-1080-NT fibrosarcoma cell line; details: HT-1080-NT fibrosarcoma viability, CellTiter-Glo ATP luminescence, 48 h; series mostly up to 46.1 µM;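 note: NT is the 2HG producing partner of a matched IDH1 knockdown line; nearly all actives have a fitted effect of over 55% in size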
In all, about 360,000 compounds went through this assay and about 6,000 (1.7%) were called active. Not shown: some 8% with an inconclusive outcome. The call rests on the fitted dose curve; in most records, active means well fitted cell-killing curve with a large enough effect; inconclusive means small, poorly fitted or top-dose-only effect, or effect the other way; inactive means flat fitted curve, though single readings scatter. Only a selection was taken, and actives are over-represented in it overall.
Mark one answer only. Choices: active, inactive

These recorded examples may help you get a feel for the data.
compound=Fc1ccc2[nH]c3c(N4CCN(Cc5ccc6c(c5)OCO6)CC4)ncnc3c2c1 answer_label=active
compound=CC1(C)CCc2cc(S(=O)(=O)N3CCN(c4nc(-c5cccs5)nc5ccccc45)CC3)ccc2O1 answer_label=inactive
compound=O=c1[nH]c(N2CCN(Cc3ccc4c(c3)OCO4)CC2)nc2c1CCCC2 answer_label=inactive
compound=COc1cccc(OCc2cc(C(=O)N3CCN(C(=O)c4ccco4)CC3)no2)c1 answer_label=inactive
compound=CCOC(=O)N1CCN(S(=O)(=O)c2ccc(Br)cc2)CC1 answer_label=inactive

We now examine a further compound.
QUERY: Could you kindly confirm the outcome this assay logged for Cc1cccc(C)c1NC(=O)CN1CCN(c2ccc(F)cc2)CC1 ?
RESULT: inactive

---

test: qHTS for induction of synthetic lethality in tumor cells producing 2HG: qHTS for the HT-1080-NT fibrosarcoma cell line; conditions: HT-1080-NT fibrosarcoma viability, CellTiter-Glo ATP luminescence, 48 h; series mostly up to 46.1 µM;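 note: NT is the 2HG producing partner of a matched IDH1 knockdown line; nearly all actives have a fitted effect of over 55% in size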
About 6,000 (1.7%) of roughly 360,000 compounds were called active. About 8% were inconclusive and are not listed. The call rests on the fitted dose curve; in most records, active means well fitted cell-killing curve with a large enough effect; inconclusive means small, poorly fitted or top-dose-only effect, or effect the other way; inactive means flat fitted curve, though single readings scatter. Many of the other results were omitted from the sample, so actives are more common in it than they were.
Mark one answer only. Choices: active, inactive

These recorded examples may help you get a feel for the data.
molecule=CCCCC(=O)Nc1ccc(C(=O)Nc2cc(C(F)(F)F)ccc2Cl)cc1 answer_label=active
molecule=O=C(COC(=O)Cc1ccc(Cl)cc1Cl)NCc1ccco1 answer_label=inactive
molecule="N#Cc1c(NC(=O)C2CCCO2)sc2c1CCCCC2 (stereo unspecified)" answer_label=inactive

QUERY: Could you kindly confirm the outcome this assay logged for CCN1CCN(CC(=O)Nc2sc3c(c2C#N)CCC3)CC1 ?
RESULT: inactive

QUERY: Could you kindly confirm the outcome this assay logged for N#Cc1c(NC(=O)CCCl)sc2c1CCCCC2 ?
RESULT: active

QUERY: Could you kindly confirm the outcome this assay logged for COC(=O)COc1cccc2c(=O)n(CC(=O)NCCc3ccc(OC)c(OC)c3)ccc12 ?
RESULT: inactive

---

Assay: qHTS for induction of synthetic lethality in tumor cells producing 2HG: qHTS for the HT-1080-NT fibrosarcoma cell line;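 note: NT is the 2HG producing partner of a matched IDH1 knockdown line; nearly all actives have a fitted effect of over 55% in size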
Details: HT-1080-NT fibrosarcoma viability, CellTiter-Glo ATP luminescence, 48 h; series mostly up to 46.1 µM
Source text: Unbiased genomic sequencing for 22 glioma genomes found recurrent mutation of IDH1 on chromosome 2q33, a gene encoding the cytosolic isoform of IDH1 associated with the tricarboxylic acid cycle (TCA) that catalyzes the oxidative decarboxylation of isocitrate, yielding alpha-ketoglutarate and CO2 via NADP+ to NADPH conversion. […] Concentration-response curves were fitted to the signals arising from the resulting luminescence. […]
The whole screen tested about 360,000 compounds, of which about 6,000 (1.7%) were called active. Roughly 8% stayed inconclusive and do not appear here. The call rests on the fitted dose curve; in most records, active means well fitted cell-killing curve with a large enough effect; inconclusive means small, poorly fitted or top-dose-only effect, or effect the other way; inactive means flat fitted curve, though single readings scatter. The sample holds actives, similar compounds and a random draw of the others, so the mix is not that of the screen.
Mark one answer only. Choices: T for active, F for inactive

These recorded examples may help you get a feel for the data.
compound=C#CCOCCOCCOCCNc1nc(N2CCN(C(=O)[C@H](C(C)C)n3cc(CCO)nn3)CC2)nc(N2CCN(C(=O)[C@H]([C@@H](C)CC)n3cc(CCCN=C(N)N)nn3)CC2)n1 answer_label=F
compound=COc1ccc(NS(=O)(=O)c2ccc(N3CCOCC3)c(NC(=O)/C=C/C(=O)O)c2)cc1 answer_label=F
compound=CC(C)c1cc(CN2CCOCC2)cc(C(C)C)c1O answer_label=F

QUERY: Could you kindly confirm the outcome this assay logged for CCC(C)C(CO)NC(=O)/C=C/[C@H]1O[C@@H](n2cnc3c(NC(=O)c4ccccc4)ncnc32)[C@H](O)[C@@H]1O (some centres not stated) ?
RESULT: F

QUERY: Could you kindly confirm the outcome this assay logged for CCCCC[C@@H]1C=C(C(=O)OCC)[C@H](c2ccccc2)N1S(=O)(=O)c1ccc(C)cc1 ?
RESULT: F

---

test: qHTS for induction of synthetic lethality in tumor cells producing 2HG: qHTS for the HT-1080-NT fibrosarcoma cell line; settings: HT-1080-NT fibrosarcoma viability, CellTiter-Glo ATP luminescence, 48 h; series mostly up to 46.1 µM;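 note: NT is the 2HG producing partner of a matched IDH1 knockdown line; nearly all actives have a fitted effect of over 55% in size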
About 6,000 (1.7%) of roughly 360,000 compounds were called active. Inconclusive results (about 8%) are left out. Calls come from the whole dose curve; as a rule, active = well fitted cell-killing curve with a large enough effect; inconclusive = small, poorly fitted or top-dose-only effect, or effect the other way; inactive = flat fitted curve, though single readings scatter. The entries come from a sample that favours actives as a whole.
Mark one answer only. Choices: active, inactive

These recorded examples may help you get a feel for the data.
compound="CC1=C(C(=O)N2CCOCC2)CC(CC(=O)NCC2CCCCC2)C(=O)N1Cc1ccc(F)cc1 (configuration not stated)" answer_label=inactive
compound=Cc1ccc(N/N=C2\COC(C)(C)CC2=O)cc1 answer_label=inactive
compound="CCCCn1nnnc1C(c1cccc(OC)c1OC)N1CCN(C/C=C/c2ccccc2)CC1 (configuration not stated)" answer_label=inactive
compound=CCNC(=O)c1cc2c(c(-c3cccc(-c4cncnc4)c3)n1)[C@H](CCO)N(C(C)=O)C2 answer_label=inactive

QUERY: Could you kindly confirm the outcome this assay logged for COc1cc(C(O)c2nc(-c3cnn(C)c3)cs2)ccc1F (configuration not stated) ?
RESULT: inactive

QUERY: Could you kindly confirm the outcome this assay logged for Oc1cc2c(cc1O)CN(C(=S)NCCc1ccc(Cl)cc1)CCC2 ?
RESULT: active

QUERY: Could you kindly confirm the outcome this assay logged for CCc1c(N=O)c(-c2ccccc2)n(O)[n+]1[O-] ?
RESULT: inactive

QUERY: Could you kindly confirm the outcome this assay logged for O=C(Nc1ccc(Cl)cc1)C1Cc2c(-c3ccc4c(c3)OCO4)ccnc2O1 (configuration not stated) ?
RESULT: inactive

QUERY: Could you kindly confirm the outcome this assay logged for COc1ccc(NC(=O)C2Cc3c(-c4ccc5c(c4)OCO5)ccnc3O2)cn1 (configuration not stated) ?
RESULT: active
